target_or_test_system: human ALK6 (Homo sapiens (Human))
test_protocol: ALK6 enzyme inhibitory effect (33P-ATP kinase assay, Reaction Biology)
Type: biochemical
cond: ALK6, test compound 300 nM; read-out: Inhibition rate at 300 nM
Recorded inhibition at 0.3 µM for the following compounds

| compound | inhibition at 0.3 µM (%) |
| --- | --- |
| CCn1cc(-c2ccnc(Nc3ccc(N4CCCCC4)cc3)n2)c(-c2cccnc2)n1 [Example 49] | 91.6 |
| CCn1cc(-c2ccnc(Nc3ccc(N4CCN(Cc5ccccc5)CC4)cc3)n2)c(-c2cccnc2)n1 [Example 19] | 88.4 |
| Fc1ccc(Cn2cc(-c3ccnc(Nc4ccc(N5CCNCC5)cc4)n3)c(-c3cccnc3)n2)cc1 [Example 139] | 90.6 |
| CCn1cc(-c2ccnc(Nc3ccc(-c4cnn(CC(F)F)c4)cc3)n2)c(-c2cccnc2)n1 [Example 29] | 91.3 |

---

target_or_test_system: human ALK6 (Homo sapiens (Human), UniProt O00238)
Sequence (O00238 14-502): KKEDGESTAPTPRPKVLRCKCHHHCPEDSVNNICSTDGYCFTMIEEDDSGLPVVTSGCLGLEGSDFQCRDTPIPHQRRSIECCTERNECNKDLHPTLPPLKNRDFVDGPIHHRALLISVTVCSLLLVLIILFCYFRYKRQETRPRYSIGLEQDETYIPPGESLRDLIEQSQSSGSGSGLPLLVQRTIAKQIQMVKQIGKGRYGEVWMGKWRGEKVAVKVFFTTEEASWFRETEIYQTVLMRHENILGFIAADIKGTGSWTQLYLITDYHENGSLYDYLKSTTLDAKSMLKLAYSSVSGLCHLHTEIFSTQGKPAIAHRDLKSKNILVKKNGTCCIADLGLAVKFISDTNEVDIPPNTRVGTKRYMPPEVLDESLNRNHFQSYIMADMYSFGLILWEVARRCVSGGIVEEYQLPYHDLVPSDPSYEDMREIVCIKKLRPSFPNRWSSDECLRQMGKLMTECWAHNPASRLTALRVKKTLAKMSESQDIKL
test_protocol: ALK6 enzyme inhibitory effect (33P-ATP kinase assay, Reaction Biology)
Type: biochemical
cond: ALK6, test compound 300 nM; read-out: Inhibition rate at 300 nM
Recorded inhibition at 0.3 µM for the following compounds

| compound | inhibition at 0.3 µM [%] |
| --- | --- |
| CCn1cc(-c2ccnc(Nc3ccc(-c4cnn(C5CCNCC5)c4)cc3)n2)c(-c2cccnc2)n1 [Example 167] | 92.2 |
| c1ccc(CCn2cc(-c3ccnc(Nc4ccc(N5CCNCC5)cc4)n3)c(-c3cccnc3)n2)cc1 [Example 142] | 92.6 |
| CCn1cc(-c2ccnc(Nc3ccc(N4CCC(C)(N)CC4)cc3)n2)c(-c2cccnc2)n1 [Example 176] | 88.5 |
| CCn1cc(-c2ccnc(Nc3ccc4c(c3)CCN(C)C4)n2)c(-c2cccnc2)n1 [Example 129] | 92.2 |

---

Test system: BMP signal in MDA-231-D-BREFluc/Rluc cells
test_protocol: BMP signal inhibitory effect (AlphaScreen SureFire SMAD1 p-Ser463/465, BMP-6 stimulation)
Assay type: cell-based
cond: BMP-6 stimulated MDA-231-D-BREFluc/Rluc cells, phospho-SMAD1 AlphaScreen; read-out: IC50

| compound | target_or_test_system | IC50, µM |
| --- | --- | --- |
| CN1Cc2ccc(Nc3nccc(-c4cn(CC(C)(C)O)nc4-c4cccnc4)n3)cc2C1 | BMP signal in MDA-231-D-BREFluc/Rluc cells | 0.0039 |
| CCn1cc(-c2ccnc(Nc3ccc4c(c3)OCCN(CCOC)C4)n2)c(-c2cccnc2)n1 | BMP signal in MDA-231-D-BREFluc/Rluc cells | 0.0213 |
| FC(F)Cn1cc(-c2ccnc(Nc3ccc(N4CCNCC4)cc3)n2)c(-c2cccnc2)n1 | BMP signal in MDA-231-D-BREFluc/Rluc cells | 0.0091 |
| CCn1cc(-c2ccnc(Nc3ccc(C4CCN(C)CC4)c(F)c3)n2)c(-c2cccnc2)n1 | BMP signal in MDA-231-D-BREFluc/Rluc cells | 0.0121 |
| COCCn1cc(-c2ccnc(Nc3ccc(N4CCN(C)CC4)cc3)n2)c(-c2cccnc2)n1 | BMP signal in MDA-231-D-BREFluc/Rluc cells | 0.0225 |
| CCn1cc(-c2ccnc(Nc3ccc4c(c3)NCCC4)n2)c(-c2cccnc2)n1 | BMP signal in MDA-231-D-BREFluc/Rluc cells | 0.0227 |
| CCn1cc(-c2ccnc(Nc3cccc(C(=O)N4CCN(C(C)C)CC4)c3)n2)c(-c2cccnc2)n1 | BMP signal in MDA-231-D-BREFluc/Rluc cells | 0.0236 |
| CCn1cc(-c2ccnc(Nc3ccc(C(C)=O)cc3)n2)c(-c2cccnc2)n1 | BMP signal in MDA-231-D-BREFluc/Rluc cells | 0.0292 |
| CCn1cc(-c2ccnc(Nc3ccc(C(=O)N4CCN(C)CC4)cc3)n2)c(-c2cccnc2)n1 | BMP signal in MDA-231-D-BREFluc/Rluc cells | 0.0151 |
| CCn1cc(-c2ccnc(Nc3ccc(N4CCN5CCC4CC5)cc3)n2)c(-c2cccnc2)n1 | BMP signal in MDA-231-D-BREFluc/Rluc cells | 0.013 |
| CN1CCN(c2ccc(Nc3nccc(-c4c[nH]nc4-c4cccnc4)n3)cc2)CC1 | BMP signal in MDA-231-D-BREFluc/Rluc cells | 0.0224 |
| CCn1cc(-c2ccnc(Nc3ccc(-c4cn5ccccc5n4)cc3)n2)c(-c2cccnc2)n1 | BMP signal in MDA-231-D-BREFluc/Rluc cells | 0.0364 |
| CCn1cc(-c2ccnc(Nc3ccc(N4CCN(Cc5ccccc5)CC4)cc3)n2)c(-c2cccnc2)n1 | BMP signal in MDA-231-D-BREFluc/Rluc cells | 0.0233 |
| COCC(O)CN1CCN(c2ccc(Nc3nccc(-c4cn(CC(C)(C)O)nc4-c4cccnc4)n3)cc2)CC1 (stereo not shown) | BMP signal in MDA-231-D-BREFluc/Rluc cells | 0.0273 |
| COCC(O)CN1CCN(c2ccc(Nc3nccc(-c4cn(C5COC5)nc4-c4cccnc4)n3)cc2)CC1 (stereo not shown) | BMP signal in MDA-231-D-BREFluc/Rluc cells | 0.0328 |
| CCn1cc(-c2ccnc(Nc3ccc(N4CCN(CCOC)CC4)c(F)c3)n2)c(-c2cccnc2)n1 | BMP signal in MDA-231-D-BREFluc/Rluc cells | 0.0308 |
| CCn1cc(-c2ccnc(Nc3ccc(CCN4CCN(C)CC4)cc3)n2)c(-c2cccnc2)n1 | BMP signal in MDA-231-D-BREFluc/Rluc cells | 0.0117 |
| CCn1cc(-c2ccnc(Nc3ccc(N4CCC[C@@H](N)C4)cc3)n2)c(-c2cccnc2)n1 | BMP signal in MDA-231-D-BREFluc/Rluc cells | 0.0126 |
| CCn1cc(-c2ccnc(Nc3ccc(N4CCN(C5CCOCC5)CC4)cc3)n2)c(-c2cccnc2)n1 | BMP signal in MDA-231-D-BREFluc/Rluc cells | 0.0124 |
